System: NCI-H23 lung
Procedure text: NCI tumour cell line growth inhibition, 48 h; in the data active means GI50 below about 0.43 µM; inactive means the rest
Outcomes: active, inactive

{"Compound": "COc1ccc(/C(=C(\\c2ccccc2)[N+](=O)[O-])c2ccc(OCCN3CCCC3)cc2)cc1", "Class label": "inactive"}
{"Compound": "O=C(NCCN1CCOCC1)c1cc2c(Oc3ccc(NC(=O)C4(C(=O)Nc5ccc(F)cc5)CC4)cc3)ccnc2[nH]1", "Class label": "inactive"}
{"Compound": "Oc1ccccc1/C=N\\NC(=S)Nc1ccc(F)cc1", "Class label": "inactive"}
{"Compound": "COc1ccc([C@@H]2[C@@H](Cl)C(=O)N2c2cc(OC)c(OC)c(OC)c2)cc1C", "Class label": "active"}
{"Compound": "CC[C@H](C)[C@H](NC(=O)CN(C)C)C(=O)N(C)[C@H](C[C@@H](OC(C)=O)c1nc(C(=O)NC23C4C5C2C2C3C4C52C(=O)OC)cs1)C(C)C (stereo not given in full)", "Class label": "inactive"}
{"Compound": "ClC/C=C/CSc1ncnc2nc[nH]c12", "Class label": "inactive"}
{"Compound": "Cc1c2ccncc2c(C)c2c1[nH]c1ccc(O)cc12", "Class label": "inactive"}
{"Compound": "NS(=O)(=O)c1cccc(Nc2cc(-c3ccc(F)cc3)[nH]n2)c1", "Class label": "inactive"}
{"Compound": "c1c2c(cc3c1OCO3)-c1ncc3cc4c(cc3c1C2)OCO4", "Class label": "active"}
{"Compound": "COc1cc(C(=O)/C=C/c2c[nH]c3ccccc23)cc(OC)c1OC", "Class label": "active"}

* * *

System: BT-549 breast
Procedure text: NCI tumour cell line growth inhibition, 48 h

{"Molecule": "COc1cc(F)c(F)c(Nc2ccc(I)cc2F)c1NS(=O)(=O)C1(CC(O)CO)CC1 (configuration not stated)", "GI50": "14.6 µM"}
{"Molecule": "COc1cc(C(=O)/C=C/c2c[nH]c3ccccc23)cc(OC)c1OC", "GI50": "0.0288 µM"}
{"Molecule": "O=C(CC1(O)C(=O)Nc2ccc(Cl)cc21)c1ccc(C(=O)NCC2CCC3(CC2)OOC2(CCCCC2)OO3)cc1 (configuration not stated)", "GI50": "3.01 µM"}
{"Molecule": "COc1ccc([C@@H]2[C@@H](Cl)C(=O)N2c2cc(OC)c(OC)c(OC)c2)cc1C", "GI50": "0.0717 µM"}
{"Molecule": "CC/C(=C/c1ccc(OC)cc1)[N+](=O)[O-]", "GI50": "2.42 µM"}
{"Molecule": "COc1cccc(/C=C\\C(=O)c2ccccc2)c1", "GI50": "10.8 µM"}
{"Molecule": "COc1ccccc1NC(=O)c1sc2ncn(CCOc3ccccc3)c(=O)c2c1C", "GI50": "26.7 µM"}

* * *

Tested on: MALME-3M melanoma
Procedure text: NCI tumour cell line growth inhibition, 48 h
Let's look at some compounds and their measured GI50.

{"Compound": "NS(=O)(=O)c1cccc(Nc2cc(-c3ccc(F)cc3)[nH]n2)c1", "GI50": "> 25 µM"}
{"Compound": "CC1CCc2c(C(=O)Nc3ncc(Cc4cccc([N+](=O)[O-])c4)s3)csc2C1 (centres undefined)", "GI50": "1 µM"}
{"Compound": "COC(=O)[C@]12CC[C@@H](C)[C@H](C)[C@@H]1C1=CC[C@@H]3[C@@]4(C)C[C@@H](OC(C)=O)[C@H](OC(C)=O)[C@@](C)(COC(C)=O)[C@@H]4[C@H](O)C[C@@]3(C)[C@]1(C)CC2", "GI50": "3.82 µM"}
{"Compound": "COc1cccc(/C=C\\C(=O)c2ccccc2)c1", "GI50": "14.3 µM"}
